System: sperm
Experiment: Post thaw DNA fragmentation Elk (Example 3)
Assay type: cell-based
Conditions: post thaw 24 HR
PROPERTY NAME: DNA fragmentation Pre-sort (%)
Respond with the bare value in %.

**Query** Need DNA fragmentation Pre-sort of O=S(=O)([O-])c1ccc(N=Nc2c(O)ccc3cc(S(=O)(=O)[O-])ccc23)cc1.[Na+].[Na+] [Yellow 6] , thanks.
**Result** 3.3

====

Task for the reader: assign each of the following compounds its reported Dead Intensity.
Tested on: membrane compromised sperm
Test: Dead gate intensity divided by live gate intensity, flow cytometer (Example 5)
Format: cell-based
Conditions: dye 62.5 μM; Hoechst 14 μL/2 mL
Respond with the bare value in %.

**Query** Need Dead Intensity of `O=S1(=O)OC(c2ccc(O)cc2)(c2ccc(O)cc2)c2ccccc21` , thanks.
**Result** 90

**Query** Same question, `O=C([O-])C1=NN(c2ccc(S(=O)(=O)[O-])cc2)C(=O)/C1=N/Nc1ccc(S(=O)(=O)[O-])cc1.[Na+].[Na+].[Na+]` this time
**Result** 77

**Query** Same question, `O=S(=O)([O-])c1ccc(N=Nc2c(O)ccc3cc(S(=O)(=O)[O-])ccc23)cc1.[Na+].[Na+]` this time
**Result** 52

**Query** Same question, COc1cc(S(=O)(=O)O)c(C)cc1N=Nc1c(O)ccc2cc(S(=O)(=O)O)ccc12 [Red 40, reference compound] this time
**Result** 53

====

Tested on: sperm
Test: Post thaw DNA fragmentation Elk (Example 3)
Assay type: cell-based
Conditions: elk, 48 h
PROPERTY NAME: DNA fragmentation Pre-sort (%)
Respond with the bare value in %.

**Query** Can you look up DNA fragmentation Pre-sort on sperm for COc1cc(S(=O)(=O)O)c(C)cc1N=Nc1c(O)ccc2cc(S(=O)(=O)O)ccc12 [Red 40, reference compound] ?
**Result** 6

====

Test system: sperm
Assay: Post thaw DNA fragmentation Elk (Example 3)
Assay type: cell-based
Settings: elk, 24 h
PROPERTY NAME: DNA fragmentation Post Sort (%)
Respond with the bare value in %.

**Query** Need DNA fragmentation Post Sort of COc1cc(S(=O)(=O)O)c(C)cc1N=Nc1c(O)ccc2cc(S(=O)(=O)O)ccc12 [Red 40, reference compound] , thanks.
**Result** 0.3
